- study-system: insulin
measured-property: Insulin Reduction (*10^3 DA650 nm/min^-2)
Enter a number only.

Sample answers from the record:
INSERT INTO results (protein, assay_result) VALUES
  ('FkpA-DsbA3 (protein) AEAAKPATAADSKAAFKNDDQKSAYALGASLGRYMENSLKEQEKLGIKLDKDQLIAGVQDAFADKSKLSDQEIEQTLQAFEARVKSSAQAKMEKDAADNEAKGKEYREKFAKEKYEDGKQYTTLEKPVAGAPQVLEFFSFFCPHCYQFEEVLHISDNVKKKLPEGVKMTKYHVNFMGGDLGKDLTQAWAVAMALGVEDKVTVPLFEGVQKTQTIRSASDIRDVFINAGIKGEEYDAAWNSFVVKSLVAQQEKAAADVQLRGVPAMFVNGKYQLNPQGMDTSNMDVFVQQYADTVKYLSEKKHHHHHH', 0.43),
  ('FkpA-DsbA4 (protein) AEAAKPATAADSKAAFKNDDQKSAYALGASLGRYMENSLKEQEKLGIKLDKDQLIAGVQDAFADKSKLSDQEIEQTLQAFEARVKSSAQAKMEKDAADNEAKGKEYREKFAKEKEDGKQYTTLEKPVAGAPQVLEFFSFFCPHCYQFEEVLHISDNVKKKLPEGVKMTKYHVNFMGGDLGKDLTQAWAVAMALGVEDKVTVPLFEGVQKTQTIRSASDIRDVFINAGIKGEEYDAAWNSFVVKSLVAQQEKAAADVQLRGVPAMFVNGKYQLNPQGMDTSNMDVFVQQYADTVKYLSEKKHHHHHH', 0.55),
  ('FkpA-DsbA2 (protein) AEAAKPATAADSKAAFKNDDQKSAYALGASLGRYMENSLKEQEKLGIKLDKDQLIAGVQDAFADKSKLSDQEIEQTLQAFEARVKSSAQAKMEKDAADNEAKGKEYREKFAKEKQYEDGKQYTTLEKPVAGAPQVLEFFSFFCPHCYQFEEVLHISDNVKKKLPEGVKMTKYHVNFMGGDLGKDLTQAWAVAMALGVEDKVTVPLFEGVQKTQTIRSASDIRDVFINAGIKGEEYDAAWNSFVVKSLVAQQEKAAADVQLRGVPAMFVNGKYQLNPQGMDTSNMDVFVQQYADTVKYLSEKKHHHHHH', 0.45);

Moving on to another protein below.
What Insulin Reduction (*10^3 DA650 nm/min^-2) value was documented for this protein, DsbC (enzyme, Escherichia coli, UniProt P0AEG6 21-236, looked up, also called wild-type DsbC) DDAAIQQTLAKMGIKSSDIQPAPVAGMKTVLTNSGVLYITDDGKHIIQGPMYDVSGTAPVNVTNKMLLKQLNALEKEMIVYKAPQEKHVITVFTDITCGYCHKLHEQMADYNALGITVRYLAFPRQGLDSDAEKEMKAIWCAKDKNKAFDDVMAGKSVAPASCDVDIADHYALGVQLGVSGTPAVVLSNGTLVPGYQPPKEMKEFLDEHQKMTSGK ?
5.81
